system: Mus musculus; assay: Toxicity in BALB/cA nude mouse assessed as change in body weight at 18 mg/kg, iv; settings: in vivo
value.kind: Activity

INSERT INTO results (structure_smiles, result_value) VALUES
  ('CC(=O)O[C@@]12CO[C@@H]1C[C@H](O)[C@@]1(C)C(=O)[C@H](O)C3=C(C)[C@@H](OC(=O)[C@H](O)[C@@H](NC(=O)OC(C)(C)CF)c4ccccc4)C[C@@](O)([C@@H](OC(=O)c4cccc(F)c4)[C@H]21)C3(C)C', '-31.3%'),
  ('CC(=O)O[C@@]12CO[C@@H]1C[C@H](O)[C@@]1(C)C(=O)[C@H](O)C3=C(C)[C@@H](OC(=O)[C@H](O)[C@@H](NC(=O)OC(C)(C)C(F)F)c4ccccc4)C[C@@](O)([C@@H](OC(=O)c4cccc(F)c4)[C@H]21)C3(C)C', '-26.7%'),
  ('CC(=O)O[C@@]12CO[C@@H]1C[C@H](O)[C@@]1(C)C(=O)[C@H](O)C3=C(C)[C@@H](OC(=O)[C@H](O)[C@@H](NC(=O)OC(C)(C)C(F)(F)F)c4ccccc4)C[C@@](O)([C@@H](OC(=O)c4ccccc4)[C@H]21)C3(C)C', '-9.7%'),
  ('CC(=O)O[C@@]12CO[C@@H]1C[C@H](O)[C@@]1(C)C(=O)[C@H](O)C3=C(C)[C@@H](OC(=O)[C@H](O)[C@@H](NC(=O)OC(C)(C)C(F)F)c4ccccc4)C[C@@](O)([C@@H](OC(=O)c4ccccc4)[C@H]21)C3(C)C', '-7.7%');

====

system: Mus musculus; assay: Toxicity in BALB/cA nude mouse assessed as survival at 12 mg/kg, iv; details: in vivo
value.kind: Activity

INSERT INTO measurements (structure_smiles, measurement_target, result_value) VALUES
  ('CC(=O)O[C@@]12CO[C@@H]1C[C@H](O)[C@@]1(C)C(=O)[C@H](O)C3=C(C)[C@@H](OC(=O)[C@H](O)[C@@H](NC(=O)OC(C)(C)CF)c4ccccc4)C[C@@](O)([C@@H](OC(=O)c4ccccc4)[C@H]21)C3(C)C', 'Mus musculus', 'Non-toxic'),
  ('CC(=O)O[C@@]12CO[C@@H]1C[C@H](O)[C@@]1(C)C(=O)[C@H](O)C3=C(C)[C@@H](OC(=O)[C@H](O)[C@@H](NC(=O)OC(C)(C)C(F)F)c4ccccc4)C[C@@](O)([C@@H](OC(=O)c4cccc(F)c4)[C@H]21)C3(C)C', 'Mus musculus', 'Non-toxic');

====

system: A549; test: Antitumor activity against human A549 cells xenografted BALB/cA mouse at 12 mg/kg, iv relative to control; assay type: functional
value.kind: T/C

INSERT INTO results (molecule, value_kind, result_value) VALUES
  ('CC(=O)O[C@@]12CO[C@@H]1C[C@H](O)[C@@]1(C)C(=O)[C@H](O)C3=C(C)[C@@H](OC(=O)[C@H](O)[C@@H](NC(=O)OC(C)(C)C(F)(F)F)c4ccccc4)C[C@@](O)([C@@H](OC(=O)c4ccccc4)[C@H]21)C3(C)C', 'T/C', '91.8%'),
  ('CC(=O)O[C@@]12CO[C@@H]1C[C@H](O)[C@@]1(C)C(=O)[C@H](O)C3=C(C)[C@@H](OC(=O)[C@H](O)[C@@H](NC(=O)OC(C)(C)C)c4ccccc4)C[C@@](O)([C@@H](OC(=O)c4ccccc4)[C@H]21)C3(C)C.O.O.O [DOCETAXEL]', 'T/C', '43%'),
  ('CC(=O)O[C@@]12CO[C@@H]1C[C@H](O)[C@@]1(C)C(=O)[C@H](O)C3=C(C)[C@@H](OC(=O)[C@H](O)[C@@H](NC(=O)OC(C)(C)C(F)F)c4ccccc4)C[C@@](O)([C@@H](OC(=O)c4ccccc4)[C@H]21)C3(C)C', 'T/C', '91.5%'),
  ('CC(=O)O[C@@]12CO[C@@H]1C[C@H](O)[C@@]1(C)C(=O)[C@H](O)C3=C(C)[C@@H](OC(=O)[C@H](O)[C@@H](NC(=O)OC(C)(C)CF)c4ccccc4)C[C@@](O)([C@@H](OC(=O)c4ccccc4)[C@H]21)C3(C)C', 'T/C', '41.5%'),
  ('CC(=O)O[C@@]12CO[C@@H]1C[C@H](O)[C@@]1(C)C(=O)[C@H](O)C3=C(C)[C@@H](OC(=O)[C@H](O)[C@@H](NC(=O)OC(C)(C)CF)c4ccccc4)C[C@@](O)([C@@H](OC(=O)c4cccc(F)c4)[C@H]21)C3(C)C', 'T/C', '53.7%'),
  ('CC(=O)O[C@@]12CO[C@@H]1C[C@H](O)[C@@]1(C)C(=O)[C@H](O)C3=C(C)[C@@H](OC(=O)[C@H](O)[C@@H](NC(=O)OC(C)(C)C(F)F)c4ccccc4)C[C@@](O)([C@@H](OC(=O)c4cccc(F)c4)[C@H]21)C3(C)C', 'T/C', '51.7%');

====

Entries and their measured Activity follow.
test system: Mus musculus; experiment: Toxicity in BALB/cA nude mouse assessed as change in body weight at 12 mg/kg, iv; details: in vivo
value.kind: Activity (%)

INSERT INTO results (molecule, result_value) VALUES
  ('CC(=O)O[C@@]12CO[C@@H]1C[C@H](O)[C@@]1(C)C(=O)[C@H](O)C3=C(C)[C@@H](OC(=O)[C@H](O)[C@@H](NC(=O)OC(C)(C)CF)c4ccccc4)C[C@@](O)([C@@H](OC(=O)c4ccccc4)[C@H]21)C3(C)C', -19.1),
  ('CC(=O)O[C@@]12CO[C@@H]1C[C@H](O)[C@@]1(C)C(=O)[C@H](O)C3=C(C)[C@@H](OC(=O)[C@H](O)[C@@H](NC(=O)OC(C)(C)C)c4ccccc4)C[C@@](O)([C@@H](OC(=O)c4ccccc4)[C@H]21)C3(C)C.O.O.O [DOCETAXEL]', -19.6),
  ('CC(=O)O[C@@]12CO[C@@H]1C[C@H](O)[C@@]1(C)C(=O)[C@H](O)C3=C(C)[C@@H](OC(=O)[C@H](O)[C@@H](NC(=O)OC(C)(C)C(F)F)c4ccccc4)C[C@@](O)([C@@H](OC(=O)c4ccccc4)[C@H]21)C3(C)C', 0),
  ('CC(=O)O[C@@]12CO[C@@H]1C[C@H](O)[C@@]1(C)C(=O)[C@H](O)C3=C(C)[C@@H](OC(=O)[C@H](O)[C@@H](NC(=O)OC(C)(C)C(F)(F)F)c4ccccc4)C[C@@](O)([C@@H](OC(=O)c4ccccc4)[C@H]21)C3(C)C', 0),
  ('CC(=O)O[C@@]12CO[C@@H]1C[C@H](O)[C@@]1(C)C(=O)[C@H](O)C3=C(C)[C@@H](OC(=O)[C@H](O)[C@@H](NC(=O)OC(C)(C)C(F)F)c4ccccc4)C[C@@](O)([C@@H](OC(=O)c4cccc(F)c4)[C@H]21)C3(C)C', -16.5),
  ('CC(=O)O[C@@]12CO[C@@H]1C[C@H](O)[C@@]1(C)C(=O)[C@H](O)C3=C(C)[C@@H](OC(=O)[C@H](O)[C@@H](NC(=O)OC(C)(C)CF)c4ccccc4)C[C@@](O)([C@@H](OC(=O)c4cccc(F)c4)[C@H]21)C3(C)C', -18);
